As shown below, each of these binders has a reported interaction score value.
Target: T1, P5mS
T1 chain: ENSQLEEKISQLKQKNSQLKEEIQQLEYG
Assay: two-hybrid library CC1;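 note: natural log of median RNA to DNA barcode read ratio; higher means stronger binding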
Settings: mean of both orientations

binder: KNAQLKEKIAALKEKIQQLKEENQALEYG [P12]
interaction score: -2.78

binder: SPEDENAALEEKIAQLKQKNAALKEEIQALEYG [P5]
interaction score: -2.94

binder: KNAQLKEENAALEEKIQQLKEKIQALKYG [P10]
interaction score: -2.88
